system: ADJ/PC6 tumour; assay: anti-tumour activity against ADJ/PC6 tumour implanted into female Balb C- mice; format: in vivo; conditions: IP (parenteral), ADJ/PC6 tumour
Consider the following compounds and their measured TI readings.
Provide a numeric answer; units are not to be included.

Supply TI value. Item: CC1(C)OC(CN)C(CN)O1.[Br][Pt][Br] (racemic) 5.2

Supply TI value. Item: CC1(C)OC(CN)C(CN)O1.[Cl][Pt][Cl] [cis-dichloro[(4R,5R)-4,5-bis-(aminomethyl)-2,2-dimethyl-1,3-] 22.6

Supply TI value. Item: CC1(C)OC(CN)C(CN)O1.[Cl][Pt][Cl] [cis-dichloro[(4S,5S)-4,5-bis-(aminomethyl)-2,2-dimethyl-1,3-] 23.9

* * *

Consider the following compounds and their measured LD50 readings.
tested on: ADJ/PC6 tumour; assay: anti-tumour activity against ADJ/PC6 tumour implanted into female Balb C- mice; assay type: in vivo; set-up: unit not given here; conditions: IP (parenteral)
Provide a numeric answer; units are not to be included.

Take a look at these entries with their results.
compound	LD50
CC1(C)OC(CN)C(CN)O1.[Cl][Pt][Cl] [cis-dichloro[(4R,5R)-4,5-bis-(aminomethyl)-2,2-dimethyl-1,3-]	35
CC1(C)OC(CN)C(CN)O1.[Br][Pt][Br] (racemic)	21

Supply LD50 value. Item: CC1(C)OC(CN)C(CN)O1.[Cl][Pt][Cl] [cis-dichloro[(4S,5S)-4,5-bis-(aminomethyl)-2,2-dimethyl-1,3-] 35

FYI, the data here is from patent US4783452A.
